// endpoint cytotoxicity of the drug in the presence of Compound 102 / system P-gp

Here's what some known entries look like.
CC(=O)O[C@H]1C(=O)[C@@]2(C)[C@H]([C@H](OC(=O)c3ccccc3)[C@]3(O)C[C@H](OC(=O)[C@H](O)[C@@H](NC(=O)c4ccccc4)c4ccccc4)C(C)=C1C3(C)C)[C@]1(OC(C)=O)CO[C@@H]1C[C@@H]2O [Taxol, taxol] :: more potent
CC[C@]1(O)C[C@@H]2CN(CCc3c([nH]c4ccccc34)[C@@](C(=O)OC)(c3cc4c(cc3OC)N(C)[C@H]3[C@@](O)(C(=O)OC)[C@H](OC(C)=O)[C@]5(CC)C=CCN6CC[C@]43[C@@H]65)C2)C1 [Vinblastine, vinblastine] :: more potent
COc1cc([C@@H]2c3cc4c(cc3[C@@H](O[C@@H]3O[C@@H]5CO[C@@H](C)O[C@H]5[C@H](O)[C@H]3O)[C@H]3COC(=O)[C@H]23)OCO4)cc(OC)c1O [Etoposide, etoposide] :: less toxic
CC[C@]1(O)C[C@H]2CN(CCc3c([nH]c4ccccc34)[C@@](C(=O)OC)(c3cc4c(cc3OC)N(C=O)[C@H]3[C@@](O)(C(=O)OC)[C@H](OC(C)=O)[C@]5(CC)C=CCN6CC[C@]43[C@@H]65)C2)C1 [Vincristine, vincristine] :: more potent
COc1cccc2c1C(=O)c1c(O)c3c(c(O)c1C2=O)C[C@@](O)(C(C)=O)C[C@@H]3O[C@H]1C[C@H](N)[C@H](O)[C@H](C)O1 [Daunorubicin, daunorubicin] :: less toxic

Consider now this further compound.
q: Quick one: cytotoxicity of the drug in the presence of Compound 102 for COc1cccc2c1C(=O)c1c(O)c3c(c(O)c1C2=O)C[C@@](O)(C(=O)CO)C[C@@H]3O[C@H]1C[C@H](N)[C@H](O)[C@H](C)O1 [Doxorubicin, adriamycin] ?
a: less toxic

* * *

Test system: mouse ConA cells
Assay: DMBA sensitivity of mouse cells
Type: cell-based
readout: protection of cells from cytotoxicity of DMBA

Cc1ccc(-c2nnc(-c3ccccc3Cl)o2)s1 :: strong protective effect
C=CCn1c2ccccc2n2cc(-c3ccccc3)nc12 :: strong protective effect
Nc1nc(SCCc2ccccc2)nc2sc3c(c12)CCCC3 :: strong protective effect

* * *

System: P-gp
Assay: Daunorubicin accumulation in ConA cells
Type: cell-based, mouse
Conditions: ConA cells, two hours with daunorubicin (500 ng/ml), flow cytometry (FIG. 8)
readout: effect on daunorubicin accumulation

Cc1ccc(OCC(=O)Nc2ccc(O)c(-c3nc4ccccc4o3)c2)cc1 :: weak influence
Cc1ccc(-c2nnc(-c3ccccc3Cl)o2)s1 :: weak influence
COc1cc2cnc3c(c(Cc4ccccc4)nn3-c3ccccc3)c2cc1OC :: weak influence
